Hello, the source for this data is PubChem BioAssay (NCI), in case you need it.

assay method text: NCI Yeast Anticancer Drug Screen. Data for the rad50 strain (AID 155);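 further: 0% = growth of vehicle-only cultures of the same strain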
test parameters: S. cerevisiae rad50 strain growth inhibition, stronger effect = higher value; at 50.0 µM unless noted
About 79,000 compounds went through this panel and 15% of them were active in at least one assay; those are over-represented in the sample as a whole.
For each record, write down the corresponding growth inhibition.
One number for each entry, in %.

Example compounds with recorded growth inhibition:
• Cc1ccc(C(CC(=O)C(C)(C)CN2CCCCC2)SCCS(=O)(=O)O)cc1 (stereo not given) = 7.5
• COC1=CC(=O)CC(C)C12Oc1c(Cl)c(OC)cc(OC)c1C2=O (stereo not given) = 2
• CC1CN(S(=O)(=O)c2ccccc2)CCN1S(=O)(=O)c1ccccc1 (stereo not given) = -9.65

Could I get growth inhibition for every one of these entries?
1. COc1cc(N=Nc2c(N)nc(N)[nH]c2=O)c(OC)cc1Cl
2. CC(=O)N1C(=O)CC23c4cccc([N+](=O)[O-])c4C(=O)N2CCCN13 (stereo not given)
3. Cc1cc(N(CCC#N)CCC#N)ccc1/C=C1/CN(N2C(=O)/C(=C/c3ccc(N(CCC#N)CCC#N)cc3C)N=C2c2ccccc2)C(c2ccccc2)=N1
4. Cc1ccc(NC(=O)Oc2ccc(C(C)(C)C)cc2)cc1NC(=O)Oc1ccc(C(C)(C)C)cc1
5. COC(=O)OCCOC(=O)OC
6. COc1ccc(C(CC(=O)C(C)(C)CN2CCCCC2)SCCS(=O)(=O)O)cc1 (stereo not given)
7. CCOC(=N)n1c(=O)n(C2=NCCN2)c2ccccc21

[out]
1. -8.45
2. 8.8
3. -2.7
4. -14.4
5. 3.15
6. -2.75
7. 0.45

* * *

Assignment: determine reported growth inhibition for the given compounds.
assay method text: NCI Yeast Anticancer Drug Screen. Data for the bub3 strain (AID 167)
test parameters: S. cerevisiae bub3 mutant strain, stronger effect = higher value; at 50.0 µM unless noted
The panel holds about 79,000 compounds, 15% with a hit somewhere; the sample as a whole holds those more often.
Answers are plain numbers, in %.

* Cc1ccc(NC(=O)c2c(Br)c(Br)c(Br)c(Br)c2C(=O)O)cc1Cl | 2.9

Below are 4 compounds. Give each one its growth inhibition.
1. CCCCC(CC)OC(=O)c1ccccc1C (configuration not stated)
2. Cc1ccccc1NC(=O)C(=O)CC(=O)c1sc(-n2nc(-c3ccccc3)cc2-c2ccccc2)nc1C
3. C=CCOCn1cnc2c(N)ncnc21
4. COC1OC(CO)C(O)C(O)C1OS(=O)(=O)c1ccc(C)cc1 (configuration not stated)

[out]
1. -1.4
2. 2.05
3. -11.3
4. -1.85

For each of the items listed, what is its growth inhibition?
1. CC1=CCC(CC2CO2)C1(C)C (configuration not stated)
2. CN1C(=O)CCC1c1nc2ccccc2[nH]1 (configuration not stated)
3. O=c1c2ccccc2n2c(=S)[nH]nc2n1-c1ccccc1
4. COC(=O)c1ccccc1-c1ccccc1C(=O)O
5. CC(=O)CCn1[nH]c(=O)c2ccccc2c1=O

[out]
[-35.2, 6.45, 0.05, 8.3, -3.15]

# batch: return growth inhibition for each of the 2 compounds below
1. C[n+]1ccc(/C=N/O)cc1
2. COc1ccc2c(c1)CCC1=C2CCC2(C)C1=CCS2(=O)=O (configuration not stated)

[out]
1. 8.45
2. 8.45

* * *

assay method text: NCI Yeast Anticancer Drug Screen. Data for the bub3 strain (AID 167)
test parameters: S. cerevisiae bub3 mutant strain, stronger effect = higher value; at 50.0 µM unless noted
About 79,000 compounds went through this panel and 15% of them were active in at least one assay; those are over-represented in the sample as a whole.
property measured: growth inhibition (%)
One number for each entry, in %.

- CCN(CC)C(=O)N(O)C1CCCCC1: 4.75
- CN(C)C(C)(CO)CO: 9.2
- CC(=O)Nc1ccc(S(=O)(=O)N/N=C(/C)c2ccccc2)cc1: -23.4

Go through the items and report each one's growth inhibition.
1. O=C(Nc1ccccc1Cl)c1cc2cc(N=Nc3ccc(Br)cc3)ccc2oc1=O
2. CCN(CC)CC(=O)Nc1ccc2c(c1)C(=O)c1ccc(NC(=O)CN(CC)CC)cc1C2=O
3. Nc1cccc(OCCCCCOc2cccc(N)c2)c1
4. CC(=O)NC1(NC(C)=O)C2CC(C1Cc1ccccc1)C(C)(C)C2C (configuration not stated)
5. CCCCC(NC(=O)C(C)NC(=O)OCc1ccccc1)C(=O)O (configuration not stated)
6. O=C1CCC(=O)N1CNc1cccc(NCN2C(=O)CCC2=O)c1

[out]
-7.05
-1.2
-34.5
-43.5
12.8
3.9

* * *

assay method text: NCI Yeast Anticancer Drug Screen. Data for the mec2-1 strain (AID 157)
test parameters: S. cerevisiae mec2-1 strain, stronger effect = higher value; at 50.0 µM unless noted
The panel holds about 79,000 compounds, 15% with a hit somewhere; the sample as a whole holds those more often.
property measured: growth inhibition (%)
Answers are plain numbers, in %.

Solved cases below.
- CCOC(CC(=O)NCCNC(C)=O)OCC: 4.6
- CC1(C)CC[C@]2(C(=O)O)CC[C@]3(C)C(=CC[C@@H]4[C@@]5(C)CC[C@H](O)C(C)(C)[C@@H]5CC[C@]43C)[C@@H]2C1: 4.4
- COc1ccc(C)cc1NC(=O)OCCCl: 2.35
- Cc1c(C(=O)C/C(=N/NC(=O)C[n+]2ccccc2)C(=O)Nc2ccccc2)[n+](=O)c2ccccc2n1O: 0.2
- CC1=C2CC3=C(C)C(=O)O[C@H]3C[C@@H](C)[C@@H]2CC1: 9.9
- COc1ccccc1OC(=O)c1ccc(Cl)cc1: -17.6
- CCO/C=C(\C)CC1([N+](=O)[O-])C(=O)c2ccccc2C1=O: -4.75
- Cc1ccc(-c2c(C#N)c(O)n(NS(=O)(=O)c3ccccc3)c(=O)c2C#N)cc1: 6.4

Batch: growth inhibition for all items listed.
1. O=C(Oc1cc2c(cc1Br)OCO2)c1cccc2ccccc12
2. O=C(/C=C/c1ccc(-c2ccccc2)cc1)c1ccccc1
3. COC(=O)c1ccc(SCCC(=O)CN2C(=O)c3ccccc3C2=O)cc1

[out]
[-30.3, -24.8, 8.5]

* * *

assay method text: NCI Yeast Anticancer Drug Screen. Data for the mlh1 rad18 strain (AID 175)
test parameters: S. cerevisiae mlh1 rad18 strain growth inhibition, stronger effect = higher value; at 50.0 µM unless noted
About 79,000 compounds went through this panel and 15% of them were active in at least one assay; those are over-represented in the sample as a whole. Where a SMILES comes first, the peptide text is derived from it. [ ]: non-standard residue; d: D form. The star is where a group is joined. Cbz = O=C(OCc1ccccc1)*; Nva = CCC[CH](N)C(=O)O
property measured: growth inhibition (%)
One number for each entry, in %.

// solved cases for growth inhibition follow
* OCCCC(O)CCC(O)CCC(O)CCCO (stereo not given) | 5.15
* C=CC(=O)OCCN(CCCC)CCCC | 21.5

I'm hoping you can list growth inhibition for every molecule here, please.
1. COc1ccc(/C=C2\N=C(N3CCCC(CO)C3)NC2=O)cc1 (stereo not given)
2. CCCCN(CCCC)C(=O)c1cccc(C)c1

[out]
[-34, 14.1]

Look at each molecule and report its growth inhibition.
1. Cn1c2c(c(=O)c3ccccc31)CC(O)C(C)(C)O2 (stereo not given)
2. COc1cccc(-c2cc(=O)c3cc(C)cnc3[nH]2)c1
3. COc1ccc(-c2oc(=O)cc(-c3ccccc3)c2-c2ccccc2)cc1
4. CC(=O)OC1OC(COC(c2ccccc2)(c2ccccc2)c2ccccc2)C(OC(C)=O)C(OC(C)=O)C1OC(C)=O (stereo not given)

[out]
1. -2.65
2. -13.2
3. 14.7
4. 24.6

Need growth inhibition for each of these molecules.
1. CC(C)CCC(C)C1CCC2C3CCC4CC(=O)CC4(C)C3CCC12C (stereo not given)
2. Cc1c(C)c(C(=O)Cc2ccccc2)c(C)c(C(=O)Cc2ccccc2)c1C
3. COC1/C=C/OC2(C)Oc3c(C)c(O)c4c(c3C2=O)C(=O)C([N+](=O)[O-])=C(NC(=O)C(C)=C/C=C\C(C)C(O)C(C)C(O)C(C)C(OC(C)=O)C1C)C4=O (stereo not given)
4. CCCOC(CCC(=O)NC(C)(C)C)CC(=O)NC(C)(C)C (stereo not given)
5. CCCC(NC(=O)OCc1ccccc1)C(=O)NC(CC(C)C)C(N)=O (stereo not given) (Cbz-[Nva]-Leu-NH2; configuration not given here)
6. CCCCCCCCCCCCCCCCC(C#N)C(=O)O (stereo not given)
7. CC(=O)OC1CCC2(C)C(CCC3C2C(=O)C(OC(C)=O)C2(C)C3CC3OC4(CCC(C)CO4)C(C)C32)C1 (stereo not given)

[out]
2.85
0.65
29.6
-9.9
5.15
-18.9
-6.9

* * *

Please respond with reported growth inhibition for every item in the list.
assay method text: NCI Yeast Anticancer Drug Screen. Data for the cln2 rad14 strain (AID 165);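 further: 0% = growth equal to vehicle treated cultures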
test parameters: S. cerevisiae cln2 rad14 strain, stronger effect = higher value; at 50.0 µM unless noted
Compounds without any hit were thinned out: in the full panel of roughly 79,000, 15% have a hit.
Numbers only, in %.

Take a look at these entries with their results.
- CC(C)N1C(=O)c2cccc(Cl)c2C1=O (tested in a mixture with another compound): 37.6
- CN(C)C(Cc1cnc[nH]1)C(=O)N1CCCC1C(N)=O (centres undefined): -0.8
- O=C(Oc1cccc(O)c1)c1ccccc1: -18.8
- NC(=O)c1ncc(Cl)cc1Cl: 5.8
- CCC(C)(C)c1ccc(C(=O)OC)o1: -13.3

Quick one: give me growth inhibition for each item below, same order please.
1. O=P(O)(O)OCC1OC(n2cnc3c(=S)nc[nH]c32)C(O)C1O (centres undefined)
2. C[C@@]1([N+](=O)[O-])CC2CCC1C2 (some centres undefined)
3. CC(C)(C)OC(=O)c1ccccc1C(=O)c1ccccc1
4. CCOC(=O)CCC(Br)(Br)Br
5. O=C(CCC1OCCO1)Nc1cc([N+](=O)[O-])ccc1OCc1ccccc1

[out]
1. 3.9
2. -6.45
3. 14.3
4. 12.8
5. -8.2

# map each compound to its growth inhibition
1. Cc1cc(O)c(C)cc1O
2. CCCCCCCCCCCCCCCOc1ccc(OCCCCCCCCCCCC)cc1
3. COC(=O)C(Br)C(Br)c1cc(OC)c(OC)c(OC)c1 (centres undefined)
4. CC/C(CC(=O)CCC(=O)Nc1c(C)cccc1C)=N\NC(=O)NN
5. CN(C)Cc1cc(C(=O)/C=C/c2ccc(Cl)c(Cl)c2)cc(CN(C)C)c1O
6. Nc1ccc(S(=O)(=O)CCS(=O)(=O)c2ccc(N)cc2)cc1
7. CC1=Nc2ccccc2S/C1=C(/C)NNS(=O)(=O)c1ccc(C)cc1
8. O=C(Nc1ccccc1)C12CCC(CC1Br)C2 (centres undefined)

[out]
[6.5, -33, 40, 24.6, 31.9, -25.1, -6.3, 7.6]

Dear colleague, could you please provide growth inhibition for the compounds listed below?
1. CCCn1/c(=N\N=O)sc2ccccc21
2. Cc1cc(Cl)ccc1N=C1NC(=O)C(CC(=O)Nc2ccc([N+](=O)[O-])cc2[N+](=O)[O-])S1 (centres undefined)
3. CCOc1ccccc1NC(=O)/C(=N\NC(C)(C)C)C1C(=O)Nc2ccccc2S1=O (centres undefined)
4. CCCCNC(=O)c1cc(=O)[nH]c(=O)[nH]1
5. CC(=O)OC1CC2C3CCc4cc(O)ccc4C3CCC2(C)C1 (centres undefined)
6. CC(=O)c1cccc(NC(=O)Nc2ccc(F)c([N+](=O)[O-])c2)c1

[out]
1. -29.6
2. -58.9
3. 9.2
4. 5.6
5. 6.7
6. 3.25
